# tested.on: human Tissue Factor (hTF) (human, UniProt P13726 33-295)
# experiment.description: cell-based or functional assay
Listed here are binders together with their documented IC50, cell viability of A431 cells, Primary ADC, 4 hr, followed by washout (FIG. 20B).
Write the number in nM without appending the unit.

43Ea-vc-MMAE (antibody, IgG1, V domains shown, MC-vc-PAB-MMAE on cysteines of the partially reduced antibody (chain and positions not stated), DAR 3-4) VH: QVQLQESGPGLVKPSQTLSLTCTVSGGSISSGQYWSWIRQHPGKGLEWIGEIYYSGSTRYNPSLKSRVTISVDTSKNQFSLKLSSVTAADTAVYYCARDTPYYYDGGYYYYMDVWGKGTTVTVSS VL: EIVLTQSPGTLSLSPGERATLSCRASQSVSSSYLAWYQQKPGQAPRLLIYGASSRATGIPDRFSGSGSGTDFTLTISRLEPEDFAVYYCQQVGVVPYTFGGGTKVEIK : 0.43

Please turn your attention to the following entry.
Ask | If you can, please state the reported IC50, cell viability of A431 cells, Primary ADC, 4 hr, followed by washout (FIG. 20B) value of anti-TF antibody 54E conjugated to MC-vc-PAB-MMAE (antibody, IgG1, V domains shown, MC-vc-PAB-MMAE on cysteines of the partially reduced antibody (chain and positions not stated), DAR 3-4, Antibody-drug conjugate (primary ADC) of the IgG1 antibody; also called 54E ADC) VH: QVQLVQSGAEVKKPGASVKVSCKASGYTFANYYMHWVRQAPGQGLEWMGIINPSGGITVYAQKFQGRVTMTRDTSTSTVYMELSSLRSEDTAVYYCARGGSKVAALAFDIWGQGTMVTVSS VL: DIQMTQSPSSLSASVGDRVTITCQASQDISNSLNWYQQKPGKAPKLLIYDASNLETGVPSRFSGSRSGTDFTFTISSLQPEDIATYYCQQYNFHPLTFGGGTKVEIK .
Reply | 0.26
